Assay: Chemical inhibition in human hepatocytes (intrinsic clearance with and without CYP inhibitors)
Format: in vitro ADME
Details: human, human hepatocyte suspension, with 2.5 μM azamulin (CYP3A4 mechanism-based inhibitor), human hepatocyte suspension, 0.5 μM Compound 6, 2.5 μM azamulin (CYP3A4 inhibitor); read-out: CLint, Azamulin
Reported Property: hepatocyte CLint at 0.5 μM (µL/min/1e6 cells)
Your answer should be a plain number; it is taken to be in µL/min/1e6 cells.

The compound listed as C=CC(=O)N1CCN([C@@H]2CCNc3c2nn(-c2ccc(Oc4ccccc4)cc2)c3C(N)=O)CC1 [Example 6] shows hepatocyte CLint at 0.5 μM equal to 9.15
